B1: tRNA (parent)
chain: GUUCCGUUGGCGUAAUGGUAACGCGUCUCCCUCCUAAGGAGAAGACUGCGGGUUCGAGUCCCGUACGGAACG

Variants of: B1
Method: yeast fitness relative to wild type (ratio to wild type); higher = fitter; tRNA-Arg(CCU), competitive growth, 37 C, YPD
Variants at the floor of the assay were thinned out.
Measurement Kind: yeast fitness
I'd appreciate a reply containing only the number, no unit.

These recorded examples may help you get a feel for the data.
{"Var": "U13C A43C", "Reported Value": 1.28}
{"Var": "C27U G38A", "Reported Value": 0.773}
{"Var": "G38C G67A", "Reported Value": 0.769}
{"Var": "U2C G12A U19C A21U G58C", "Reported Value": 0.603}

# input for lookup
What value of yeast fitness has been reported for the following variant? A65C A69C A70G
0.554
